Test: Octanol/water partition coefficient, logP of compound at pH 7.4 by shake-flask method
Type: physicochemical
Cut-off 2 on logD: below means Met, at or above means Not met.

Q: Identify whether the compound CN1C[C@H]2C[C@@H]1C[C@@H]2n1cc(Nc2nc(NC3(C)CC3)c3c(=O)n(C)ccc3n2)cn1 records logD below 2.
Ans: Met

Q: Dear colleague, could you confirm whether logD of CC(=O)N1CCC(n2cc(Nc3nc(NC4(C)CC4)c4c(=O)n(C)ccc4n3)cn2)CC1 falls below 2? Thanks.
Ans: Not met

Q: Find out if reported logD for CN1CCC(n2cc(Nc3nc(NC4(C)CC4)c4c(=O)n(CC(F)F)ccc4n3)cn2)CC1 is less than 2
Ans: Not met

Q: I wonder whether C[C@@H](CF)n1ccc2nc(Nc3cnn(C4CCN(C)CC4)c3)nc(NC3(C)CC3)c2c1=O has logD below 2. Can you tell?
Ans: Not met

Q: Problem: For the compound C[C@H](F)Cn1ccc2nc(Nc3cnn(C4CC5(C4)CN(C)C5)c3)nc(NC3(C)CC3)c2c1=O , is logD under 2?
Ans: Not met

Q: Does CN(C)CC(=O)N1CCC(n2cc(Nc3nc(NC4(C)CC4)c4c(=O)n(C)ccc4n3)cn2)CC1 have logD strictly under 2?
Ans: Met

Q: Record C[C@@H](F)Cn1ccc2nc(Nc3cnn(C4CCN(C)CC4)c3)nc(NC3(C)CC3)c2c1=O : is its logD strictly below 2?
Ans: Not met

Q: Just wondering, is logD of CN1C[C@H]2C[C@@H]1C[C@@H]2n1cc(Nc2nc(NC3(C)CC3)c3c(=O)n(CC(F)F)ccc3n2)cn1 below 2?
Ans: Met

Q: Below 2 on logD? Entry CN1CCC(n2cc(Nc3nc(NC4(C)CC4)c4c(=O)n(C5CC5)ccc4n3)cn2)CC1
Ans: Not met

Q: Determine if C[C@H]1C[C@@H](n2cc(Nc3nc(NC4(C)CC4)c4c(=O)n(C)ccc4n3)cn2)CCN1C (relative stereo) shows logD strictly lower than 2.
Ans: Not met

Q: In the record for COC(=O)N1CCN([C@H]2CC[C@H](Nc3nc(Nc4cnn(C)c4)nc4ccc(C)nc34)CC2)CC1 , is logD less than 2?
Ans: Not met

Q: is_below(logD, 2) for CN1CC(n2cc(Nc3nc(NC4(C)CC4)c4c(=O)n(C)ccc4n3)cn2)CCC1=O (stereo not given) ?
Ans: Not met

Q: Check if logD falls below 2 for Cn1cc(Nc2nc(NC3(C)CC3)c3nc(CC#N)ccc3n2)cn1 .
Ans: Not met

Q: Regarding CN1CCC(n2cc(Nc3nc(NC4(C)CC4)c4c(=O)n(C(F)F)ccc4n3)cn2)CC1 , kindly confirm whether its logD is beneath 2.
Ans: Not met

Q: Consider the compound C[C@@H]1C[C@@H](n2cc(Nc3nc(NC4(C)CC4)c4c(=O)n(C)ccc4n3)cn2)CCN1C (racemic) . Is its logD strictly less than 2?
Ans: Not met

Q: I wonder whether COC(=O)N1CCN([C@H]2CC[C@H](Nc3nc(Nc4cnn(C)c4)nc4ccn(CC#N)c(=O)c34)CC2)CC1 has logD below 2. Can you tell?
Ans: Not met

Q: Report whether reported logD is lower than 2 (strictly) for Cn1cc(Nc2nc(NC3(C)CC3)c3c(=O)n(C)ccc3n2)cn1
Ans: Not met

Q: Determine whether this compound shows logD lower than 2 (ties excluded): C[C@H](F)Cn1ccc2nc(Nc3cnn(C4CCN(C)CC4)c3)nc(NC3(C)CC3)c2c1=O
Ans: Not met

====

I'd be grateful if you could share measured efflux ratio for these entries.
Assay: Efflux ratio of permeability in human Caco-2 cells
Format: ADME, cell-based
Reply briefly: the number, and no unit.

Q: Supply recorded efflux ratio for CN1CCC(n2cc(Nc3nc(NC4(C)CC4)c4c(=O)n(C)ccc4n3)cn2)CC1 here.
Ans: 3.1

Q: // Input: Cn1cc(Nc2nc(NC3(C)CC3)c3c(=O)n(C)ccc3n2)cn1 . Output its efflux ratio only.
Ans: 0.75

Q: Return efflux ratio for the following compound: CN1CCC(n2cc(Nc3nc(NC4(C)CC4)c4c(=O)n(-c5cnn[nH]5)ccc4n3)cn2)CC1
Ans: 28

Q: Provide measured efflux ratio value, entry: CN1CCC(n2cc(Nc3nc(NC4(C)CC4)c4c(=O)n(-c5nnc[nH]5)ccc4n3)cn2)CC1
Ans: 4.5

Q: Specify efflux ratio for CC(=O)N1CCC(n2cc(Nc3nc(NC4(C)CC4)c4c(=O)n(C)ccc4n3)cn2)CC1 and stop.
Ans: 6

Q: Recall and state the measured efflux ratio for COC(=O)N1CCN([C@H]2CC[C@H](Nc3nc(Nc4cnn(C)c4)nc4ccc(C)nc34)CC2)CC1 .
Ans: 2.1

Q: Consider the compound CN1CC2(CC(n3cc(Nc4nc(NC5(C)CC5)c5c(=O)n(CC(F)F)ccc5n4)cn3)C2)C1 . State its measured efflux ratio.
Ans: 7.1

Q: Give the measured efflux ratio for CN(C)CC(=O)N1CCC(n2cc(Nc3nc(NC4(C)CC4)c4c(=O)n(C)ccc4n3)cn2)CC1
Ans: 37

Q: Give the value of efflux ratio reported for the following: CN1CC2(CC(n3cc(Nc4nc(NC5(C)CC5)c5c(=O)n(C)ccc5n4)cn3)C2)C1
Ans: 15

Q: Return the recorded efflux ratio value; entry: CN1CCC(n2cc(Nc3nc(NC4(C)CC4)c4c(=O)n(-c5cn(C)nn5)ccc4n3)cn2)CC1
Ans: 2

Q: Answer with reported efflux ratio of C[C@H](F)Cn1ccc2nc(Nc3cnn(C4CC5(C4)CN(C)C5)c3)nc(NC3(C)CC3)c2c1=O
Ans: 6.1

Q: For COC(=O)N1CCN([C@H]2CC[C@H](Nc3nc(Nc4cnn(C)c4)nc4ccn(C)c(=O)c34)CC2)CC1 , write its efflux ratio.
Ans: 3

====

Target: Interleukin-1 receptor-associated kinase 4 (Homo sapiens, UniProt Q9NWZ3)
Sequence (Q9NWZ3 whole entry): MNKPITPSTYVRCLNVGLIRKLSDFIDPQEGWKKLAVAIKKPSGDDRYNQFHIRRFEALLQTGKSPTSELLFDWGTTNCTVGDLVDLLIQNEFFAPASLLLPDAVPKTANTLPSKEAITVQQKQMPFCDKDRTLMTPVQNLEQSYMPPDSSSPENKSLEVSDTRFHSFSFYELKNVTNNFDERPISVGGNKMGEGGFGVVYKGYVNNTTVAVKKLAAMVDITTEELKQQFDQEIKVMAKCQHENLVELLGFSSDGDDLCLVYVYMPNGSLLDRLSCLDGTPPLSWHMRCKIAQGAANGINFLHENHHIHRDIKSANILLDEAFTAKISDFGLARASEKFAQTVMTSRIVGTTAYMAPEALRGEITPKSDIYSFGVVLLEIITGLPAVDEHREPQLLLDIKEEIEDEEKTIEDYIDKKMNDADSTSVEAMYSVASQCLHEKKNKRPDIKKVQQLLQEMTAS
Experiment: Inhibition of IRAK4 in IL1-stimulated human KARPAS-299 cells assessed as fluorescence intensity
Type: cell-based
ASSAY_READOUT: IC50 (nM)
Output spec: scalar in nM, unitless text.

Q: Respond only with IC50 recorded for C[C@H]1C[C@@H](n2cc(Nc3nc(NC4(C)CC4)c4c(=O)n(C)ccc4n3)cn2)CCN1C (relative stereo)
Ans: 18

Q: Quick one: give measured IC50 for CN1CC2(CC(n3cc(Nc4nc(NC5(C)CC5)c5c(=O)n(-c6cn(C)nn6)ccc5n4)cn3)C2)C1
Ans: 500

Q: Identify the reported IC50 for the following entry. CN(C)CC(=O)N1CCC(n2cc(Nc3nc(NC4(C)CC4)c4c(=O)n(C)ccc4n3)cn2)CC1
Ans: 16

Q: Supply measured IC50 of CN(C)C(=O)CN1CCC(n2cc(Nc3nc(NC4(C)CC4)c4c(=O)n(C)ccc4n3)cn2)CC1 in your reply.
Ans: 46

Q: Please report IC50 for the following compound: CN1CC2(CC(n3cc(Nc4nc(NC5(C)CC5)c5c(=O)n(CC(F)F)ccc5n4)cn3)C2)C1
Ans: 90

Q: Give reported IC50 value for CC(C)n1ccc2nc(Nc3cnn(C4CCN(C)CC4)c3)nc(NC3(C)CC3)c2c1=O
Ans: 210

====

Test: Metabolic stability in human liver microsomes assessed as intrinsic clearance
Format: ADME
For each of the compounds below, state its CLint.
Mention the unit after the number when you answer.

Q: Please give the documented CLint of CN(C)CC(=O)N1CCC(n2cc(Nc3nc(NC4(C)CC4)c4c(=O)n(C)ccc4n3)cn2)CC1
Ans: 40 µL/min/mg

Q: Write down CLint measured for item C[C@H](F)Cn1ccc2nc(Nc3cnn(C4CC5(C4)CN(C)C5)c3)nc(NC3(C)CC3)c2c1=O
Ans: 10 µL/min/mg

Q: Tell me its CLint given COC(=O)N1CCN([C@H]2CC[C@H](Nc3nc(Nc4cnn(C)c4)nc4ccc(C)nc34)CC2)CC1 as the entry.
Ans: 37 µL/min/mg

Q: Given CN1CCC(n2cc(Nc3nc(NC4(C)CC4)c4c(=O)n(C)ccc4n3)cn2)CC1 , respond with its CLint.
Ans: 25 µL/min/mg
